This collection of values is drawn from PubChem BioAssay AID212.

# Test system: BDF1 mice, colon carcinoma 38 sc, T/C %
# Test description: NCI In Vivo Anticancer Drug Screen. Data for tumor model Colon Carcinoma 38 (subcutaneous) in B6D2F1 (BDF1) mice
# Applied conditions: endpoint: median tumor weight (est.); dose: 12.5 mg/kg/injection; schedule: Q07DX002 (ip); vehicle: saline; higher = larger tumour
Inconclusive results are not listed.

| Compound | System under test | T/C |
| --- | --- | --- |
| N=C1C=C[C@]2(O)C[C@H](Cl)CN12 | BDF1 mice, colon carcinoma 38 sc, T/C % | 88 % of control |
| CCN=C=NCCCN(C)C | BDF1 mice, colon carcinoma 38 sc, T/C % | 118 % of control |
| CC1CN1P1(N2CC2C)=NP(N2CC2C)(N2CC2C)=NP(N2CC2C)(N2CC2C)=N1 (stereo not drawn) | BDF1 mice, colon carcinoma 38 sc, T/C % | 104 % of control |
